- target_desc: T1, MITF_(ΔSer-rich) (UniProt O75030-9 289-419, Δ394–411)
- T1 construct: numbers count on: the MITF-M isoform; The methods print Δ372–381 for this variant too; the legend, the results and the canonical numbers (Δ501–518) give Δ394–411; also called Δ394–411; deletion of the serine-rich region; source: E. coli BL21 (DE3), purified (Ni-NTA, TEV cleavage, Q-Sepharose)
- T1 sequence (looked up): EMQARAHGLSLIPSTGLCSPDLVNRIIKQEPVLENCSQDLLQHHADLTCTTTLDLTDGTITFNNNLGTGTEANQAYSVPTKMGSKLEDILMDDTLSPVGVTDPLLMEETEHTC
- assay_text: ITC; 400 µM TAZ1 or TAZ2 in the syringe injected into 16–30 µM MITF construct in the cell; 20 mM TRIS pH 8, 25 mM NaCl, 5 mM βME, 10 µM ZnCl2; 30 °C; single-binding-site fit; duplicate
- conditions: both partners purified
measure_name: Kd (nM)
Give a bare numeral; the unit nM is implied.

Request the reported Kd associated with TAZ2 domain of CBP/p300 (domain or fragment) GDSRRLSIQRCIQSLVHACQCRNANCSLPSCQKMKRVVQHTKGCKRKTNGGCPICKQLIALCCYHAKHCQENKCPVPFCLNI
2260
